- measured on: E. coli iPGM (Escherichia coli)
- Sequence (P37689 whole entry, looked up): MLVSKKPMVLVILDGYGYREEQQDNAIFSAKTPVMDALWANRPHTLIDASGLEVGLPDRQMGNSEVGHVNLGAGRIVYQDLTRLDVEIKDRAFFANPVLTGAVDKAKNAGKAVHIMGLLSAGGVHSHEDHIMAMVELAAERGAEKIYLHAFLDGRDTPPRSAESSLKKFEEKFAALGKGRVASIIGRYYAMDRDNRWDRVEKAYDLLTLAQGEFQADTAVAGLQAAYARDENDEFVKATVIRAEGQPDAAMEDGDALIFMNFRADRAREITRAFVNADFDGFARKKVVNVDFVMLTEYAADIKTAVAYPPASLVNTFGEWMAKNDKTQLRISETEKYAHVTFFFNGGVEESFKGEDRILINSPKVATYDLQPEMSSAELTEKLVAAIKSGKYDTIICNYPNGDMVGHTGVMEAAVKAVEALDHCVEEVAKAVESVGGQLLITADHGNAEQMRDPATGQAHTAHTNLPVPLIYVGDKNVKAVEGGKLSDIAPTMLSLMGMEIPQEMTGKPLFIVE
- assay notes: biochemical
- measurement context: read-out: E. coli iPGM Max Inhibition
Where a SMILES comes first, the peptide text is derived from it. Bridges are numbered along the chain shown (N, C = ends). [ ]: non-standard residue; d: D form.
# note: exactly 90% is not below, so it is f; use t for Emax strictly under it

*Q* Criterion: Emax strictly below 90%. Is it met by CC(C)C[C@@H]1NC(=O)[C@@H](Cc2ccc(O)cc2)NC(=O)CSC[C@@H](C(=O)N[C@@H](CC(N)=O)C(=O)N[C@H](C(=O)N[C@@H](CS)C(N)=O)[C@@H](C)O)NC(=O)[C@H](CC(N)=O)NC(=O)[C@@H]2CCCN2C(=O)[C@H](Cc2c[nH]c3ccccc23)NC(=O)[C@H](CCC(=O)O)NC1=O [Bm-4a] ({CH2CO}-[dY]LEWPNCNTC-NH2; thioether N-7) ?
*A* t

*Q* State whether 90% exceeds Emax recorded for CC(C)C[C@H](NC(=O)[C@H](Cc1ccc(O)cc1)NC(=O)[C@@H]1CSCC(=O)N[C@H](Cc2ccc(O)cc2)C(=O)N[C@@H](CC(=O)O)C(=O)N[C@@H](Cc2ccc(O)cc2)C(=O)N2CCC[C@H]2C(=O)NCC(=O)N[C@@H](CC(=O)O)C(=O)N[C@@H](Cc2ccc(O)cc2)C(=O)N1)C(N)=O [Ce-2e] ({CH2CO}-[dY]DYPGDYCYL-NH2; thioether N-8) .
*A* f

*Q* # strict comparison: is reported Emax < 90%? input = CC[C@H](C)[C@@H]1NC(=O)[C@H](CCCNC(=N)N)NC(=O)[C@H](Cc2ccccc2)NC(=O)[C@@H]2CCCN2C(=O)[C@H](CC(N)=O)NC(=O)[C@H](C)NC(=O)[C@H](CC(C)C)NC(=O)[C@H]([C@@H](C)O)NC(=O)[C@H]([C@@H](C)O)NC(=O)[C@H](Cc2ccc(O)cc2)NC(=O)CSC[C@@H](C(=O)NCC(N)=O)NC(=O)[C@H](Cc2c[nH]cn2)NC(=O)[C@H](CC(C)C)NC1=O [Ce-4] ({CH2CO}-YTTLANPFRILHCG-NH2; thioether N-13)
*A* t

*Q* Dear colleague, could you confirm whether Emax of CC[C@H](C)[C@@H]1NC(=O)[C@H](CCC(=O)O)NC(=O)[C@@H]2CCCN2C(=O)[C@H](C)NC(=O)[C@H](CC(N)=O)NC(=O)[C@@H]2CCCN2C(=O)[C@H](Cc2c[nH]c3ccccc23)NC(=O)[C@H](CO)NC(=O)[C@@H](Cc2ccc(O)cc2)NC(=O)CSC[C@@H](C(=O)N[C@@H](CS)C(=O)NCC(N)=O)NC(=O)[C@H](CCCCN)NC(=O)[C@H](Cc2c[nH]c3ccccc23)NC1=O [Bm-1] ({CH2CO}-[dY]SWPNAPEIWKCCG-NH2; thioether N-12) falls below 90%? Thanks.
*A* t

*Q* A record lists CC(C)C[C@H](NC(=O)[C@H](Cc1ccc(O)cc1)NC(=O)[C@@H]1CSCC(=O)N[C@H](Cc2ccc(O)cc2)C(=O)N[C@@H](CC(=O)O)C(=O)N[C@@H](Cc2ccc(O)cc2)C(=O)N2CCC[C@H]2C(=O)NCC(=O)N[C@@H](CC(=O)O)C(=O)N[C@@H](Cc2ccc(O)cc2)C(=O)N1)C(=O)N[C@@H](Cc1ccc(O)cc1)C(=O)NCC(=O)N[C@H](C(N)=O)[C@@H](C)O . Is its Emax below 90%?
*A* f
